List of AUC(0-t) values.
# assay.name: Mice colon pharmacokinetic studies
# Assay type: in vivo
# condition.info: mouse, plasma; female Balb/c mice, oral gavage, 10 mg/kg; read-out: Plasma AUC0-24
measured.property: AUC(0-t) (ng·h/mL)

- compound: "[2H]C([2H])([2H])NC(=O)c1cnc(NC(=O)C2CC2)cc1Nc1cnn2ccc([C@H](O)C(F)(F)F)c(OC)c12 [Example 7A]"
  measured.property: "AUC(0-t)"
  measurement: 599
- compound: "[2H]C([2H])([2H])NC(=O)c1cnc(NC(=O)C2CC2)cc1Nc1nn(C)c2ccc([C@H](O)C(F)(F)F)c(OC)c12 [Example 49A]"
  measured.property: "AUC(0-t)"
  measurement: 1220

* * *

List of IC50 values.
# test.system: TYK2-JH2 domain (Homo sapiens, UniProt P29597)
# Construct: JAK1-JH2 domain or TYK2-JH2 domain enzyme in assay buffer
# Sequence (P29597 589-875 limits assumed): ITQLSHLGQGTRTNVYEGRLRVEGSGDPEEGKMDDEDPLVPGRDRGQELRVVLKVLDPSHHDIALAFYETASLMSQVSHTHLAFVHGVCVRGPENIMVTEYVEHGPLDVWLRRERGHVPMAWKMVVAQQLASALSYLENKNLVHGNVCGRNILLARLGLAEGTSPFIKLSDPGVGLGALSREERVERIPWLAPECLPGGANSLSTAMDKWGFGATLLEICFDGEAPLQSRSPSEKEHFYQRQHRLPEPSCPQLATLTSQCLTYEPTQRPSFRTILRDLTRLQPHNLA
# assay.name: Binding activity test for JH2 domain of TYK2 (Tb-antibody/tracer FRET)
# condition.info: JH2 domain enzyme; 60 min at 25°C, then 4°C overnight; read-out: TYK2 JH2 Binding IC50

- compound: "[2H]C([2H])([2H])NC(=O)c1cnc(NC(=O)[C@@H]2C[C@@H]2F)cc1Nc1nn(C)c2ccc([C@H](OC([2H])([2H])[2H])C(F)(F)F)c(OC)c12"
  IC50: "0.075 nM"
- compound: "[2H]C([2H])([2H])CC(=O)c1cnc(NC(=O)C2CC2)cc1Nc1nn(C)c2ccc([C@H](O)C(F)(F)F)c(OC)c12 [Example 54A]"
  IC50: "0.118 nM"
- compound: "[2H]C([2H])([2H])OC(c1ccc2c(c(Nc3cc(NC(=O)C4CC4)ncc3C(=O)OC)nn2CCOC)c1OC)C(F)(F)F (single isomer, unassigned) [Example 157A]"
  IC50: "0.095 nM"
- compound: "[2H]C([2H])([2H])NC(=O)c1nnc(NC(=O)C2CC23CC3)cc1Nc1cnn2ccc([C@H](O)C(F)(F)F)c(OC)c12 (single isomer, unassigned) [Example 82B]"
  IC50: "0.23 nM"
- compound: "[2H]C([2H])([2H])NC(=O)c1cnc(NC(=O)[C@@H]2C[C@@H]2F)cc1Nc1cnn2cnc(OC)c(OC)c12"
  IC50: "4.55 nM"
- compound: "CCOC(c1ccc2c(c(Nc3cc(NC(=O)C4CC4)ncc3C(=O)OC)nn2C)c1OC)C(F)(F)F (single isomer, unassigned) [Example 106B]"
  IC50: "0.21 nM"

* * *

# test.system: TYK2-JH2 domain (Homo sapiens)
# Construct: JAK1-JH2 domain or TYK2-JH2 domain enzyme in assay buffer
# assay.name: Binding activity test for JH2 domain of TYK2 (Tb-antibody/tracer FRET)
# condition.info: ratio of JAK1 JH2 to TYK2 JH2 binding IC50
List of JAK1/TYK2 selectivity values.
measured.property: JAK1/TYK2 selectivity

- compound: "[2H]C([2H])([2H])OC(=O)c1cnc(NC(=O)C2CC2)cc1Nc1ncn2ncc(CC)c2c1OC"
  bound.sign: "="
  measurement: 52.94
- compound: "COCCn1ccc(Nc2cc(Nc3nn(C)c4ccc([C@H](OC)C(F)(F)F)c(OC)c34)c(C(=O)OC)cn2)n1"
  bound.sign: ">"
  measurement: 966
- compound: "[2H]C([2H])([2H])NC(=O)c1cnc(NC(=O)[C@@H]2C[C@@H]2F)cc1Nc1nn(C)c2ccc([C@H](OC([2H])([2H])[2H])C(F)(F)F)c(OC)c12"
  bound.sign: "="
  measurement: 35.08
- compound: "[2H]C([2H])([2H])NC(=O)c1cnc(NC(=O)[C@@H]2C[C@@H]2F)cc1Nc1cnn2cnc(OC)c(OC)c12"
  bound.sign: "="
  measurement: 56.0
- compound: "COC(=O)c1cnc(NC(=O)C2CC2)cc1Nc1cnn2ccc([C@H](O)C(F)(F)F)c(OC)c12"
  bound.sign: "="
  measurement: 338.1
- compound: "[2H]C([2H])([2H])NC(=O)c1cnc(NC(=O)C2CC2)cc1Nc1cnn2ccc(C(O)C(F)(F)F)cc12 (stereo not shown)"
  bound.sign: ">"
  measurement: 6.37
- compound: "[2H]C([2H])([2H])NC(=O)c1cnc(NC(=O)C2CC23CC3)cc1Nc1cnn2ccc([C@H](O)C(F)(F)F)c(OC)c12 (stereo partly shown) [Example 32]"
  bound.sign: "="
  measurement: 137.2
- compound: "CCn1nc(Nc2cc(NC(=O)C3CC3)ncc2C(=O)OC)c2c(OC)c(C(O)C(F)(F)F)ccc21 (single isomer, unassigned) [Example 70A]"
  bound.sign: "="
  measurement: 145.12
- compound: "[2H]C([2H])([2H])NC(=O)c1cnc(NC(=O)C2CC2)cc1Nc1nn(C)c2ccc([C@@H](O)C(F)(F)F)c(OC)c12 [Example 49B]"
  bound.sign: "="
  measurement: 28.76
- compound: "[2H]C([2H])([2H])NC(=O)c1cnc(NC(=O)C2CC2)cc1Nc1nn(C)c2ccc([C@@H](OC([2H])([2H])[2H])C(F)(F)F)c(OC)c12 [Example 55B]"
  bound.sign: "="
  measurement: 153.54
- compound: "CCn1nc(Nc2cc(NC(=O)C3CC3)ncc2C(=O)OC)c2c(OC)c(C(O)C(F)(F)F)ccc21 (single isomer, unassigned) [Example 70B]"
  bound.sign: "="
  measurement: 22.26
- compound: "CNC(=O)c1nnc(NC(=O)C2CC2)cc1Nc1nc2ccccn2n1"
  bound.sign: "="
  measurement: 16.30
- compound: "[2H]C([2H])([2H])NC(=O)c1nnc(NC(=O)C2CC23CC3)cc1Nc1cnn2ccc([C@H](O)C(F)(F)F)c(OC)c12 (single isomer, unassigned) [Example 82A]"
  bound.sign: "="
  measurement: 38.29
